meta.source: the RNAGym collection of RNA variant scans (doi:10.7554/elife.80360)

B1: HDV Ribozyme (parent)
chain: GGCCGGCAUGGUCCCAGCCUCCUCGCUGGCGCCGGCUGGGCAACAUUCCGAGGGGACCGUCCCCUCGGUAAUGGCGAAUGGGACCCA

variants of: B1; experiment: self-cleavage, relative activity (ratio to wild type); higher = more cleavage; co-transcriptional
# key: entry, value: self-cleavage
// no unit string in output, number only

G10A G80A | 0.11
C3U C14A | 0.594
U23A G52U | 0.819

Reported self-cleavage ( G31C C66A ) = 0.405

Reported self-cleavage ( G28U G67C ) = 0.0545

Reported self-cleavage ( C26A C62A ) = 1.15

Reported self-cleavage ( G34U G50C ) = 0.0906

Reported self-cleavage ( C63U A87G ) = 0.927

Reported self-cleavage ( C26A C33U ) = 0.796

Reported self-cleavage ( C30A G80C ) = 0.272

Reported self-cleavage ( G2A U9G ) = 0.192

Reported self-cleavage ( C63U G74A ) = 0.546

Reported self-cleavage ( U65C U69G ) = 1.03
